Origin of values: the NIST ThermoML archive (doi:10.1016/j.jct.2005.06.011)

measurement conditions: 308.15 K; 101 kPa; Liquid
Please use 1 for viscosity under 2 mPa·s and 0 for everything else, ties included.

>>> label("CCO")
1
>>> label("CC1CCCCC1")
1
>>> label("CC(C)CO")
0
>>> label("CC(C)CCO")
1
>>> label("CCCO")
1
>>> label("CC(C)O")
1

* * *

measurement conditions: 298.15 K; 101 kPa; Liquid
Numbers after ± are expanded uncertainties.
Reported values of mass density for individual entries
quantity kind: mass density

>>> result("CCCO [propan-1-ol]")
"809.65 ± 8.1 kg/m3"
>>> result("CCO [ethanol]")
"785.66 ± 7.9 kg/m3"
>>> result("CC(C)CO [2-methyl-1-propanol]")
"809.31 ± 8.1 kg/m3"
>>> result("CC(C)CCO [3-methylbutan-1-ol]")
"820.17 ± 8.2 kg/m3"
>>> result("CC1CCCCC1 [methylcyclohexane]")
"764.99 ± 7.7 kg/m3"
>>> result("CCCCO [butan-1-ol]")
"808.49 ± 8.1 kg/m3"
>>> result("CC(C)O [propan-2-ol]")
"781.05 ± 7.8 kg/m3"

* * *

Reported values of viscosity for individual entries
measurement conditions: 303.15 K; 101 kPa; Liquid
quantity kind: viscosity (mPa·s)

>>> quantitative_result("CCCO")
1.809
>>> quantitative_result("CC(C)O")
1.786
>>> quantitative_result("CCCCO")
2.254
>>> quantitative_result("CCO")
0.985
>>> quantitative_result("CC(C)CCO")
2.258
>>> quantitative_result("CC1CCCCC1")
0.631
>>> quantitative_result("CC(C)CO")
2.635

* * *

measurement conditions: 303.15 K; 101 kPa; Liquid
Reported values of mass density for individual entries
quantity kind: mass density (kg/m3)

>>> quantitative_result("CC1CCCCC1")
760.66
>>> quantitative_result("CCCO")
805.5
>>> quantitative_result("CCCCO")
804.6
>>> quantitative_result("CC(C)CCO")
816.28
>>> quantitative_result("CC(C)CO")
805.23
>>> quantitative_result("CCO")
781.34
>>> quantitative_result("CC(C)O")
776.79

* * *

method description: refractive index (Na D-line) (dimensionless)
measurement conditions: 308.15 K; 101.33 kPa; Liquid
Numbers after ± are expanded uncertainties.
Reported values of refractive index for individual entries
quantity kind: refractive index

>>> result("CC(C)CO")
"1.3896 ± 0.0013"
>>> result("CC(C)CCO")
"1.4013 ± 0.0013"
>>> result("CC1CCCCC1")
"1.4163 ± 0.0013"
>>> result("CCCO")
"1.38 ± 0.0012"
>>> result("CCCCO")
"1.394 ± 0.0025"
>>> result("CCO")
"1.3563 ± 0.0012"
>>> result("CC(C)O")
"1.3716 ± 0.0012"

* * *

method description: refractive index (Na D-line) (dimensionless)
measurement conditions: 303.15 K; 101.33 kPa; Liquid
Reported values of refractive index for individual entries
quantity kind: refractive index

>>> quantitative_result("CCCO")
1.3819
>>> quantitative_result("CCO")
1.3589
>>> quantitative_result("CC(C)CO")
1.3917
>>> quantitative_result("CC(C)CCO")
1.4034
>>> quantitative_result("CC1CCCCC1")
1.4192
>>> quantitative_result("CC(C)O")
1.3741
>>> quantitative_result("CCCCO")
1.3959

* * *

Reported values of refractive index for individual entries
method description: refractive index (Na D-line) (dimensionless)
measurement conditions: 298.15 K; 101.33 kPa; Liquid
quantity kind: refractive index

>>> quantitative_result("CCCCO")
1.3983
>>> quantitative_result("CC(C)CO")
1.3932
>>> quantitative_result("CC1CCCCC1")
1.4217
